All values here come from patent US20090253644A1.

molecules and their reported SF (cell surviving fraction), administration alone
test system: Bovine aortic endothelial cells (BAEC); experiment: Colony assay on vascular endothelial cells with 60Co γ-ray irradiation; format: cell-based; details: 10 μM, 24 hours, no irradiation
Keep it simple and answer with nothing but the number.

In the examples that follow, each entry is paired with its recorded SF (cell surviving fraction), administration alone.
MOLECULE	REPORTED MEASUREMENT
CCCCCCCCCCCCCCCCCC(=O)OCC(O)CO[C@H]1O[C@H](CS(=O)(=O)[O-])[C@@H](O)[C@H](O)[C@@H]1O.[Na+] (stereo partly shown)	0.8758
CCCCCCCCCCCCCC(=O)OCC(O)CO[C@H]1O[C@H](CS(=O)(=O)[O-])[C@@H](O)[C@H](O)[C@H]1O.[Na+] (stereo partly shown)	1.0605

### Prompt Give the measured SF (cell surviving fraction), administration alone of CCCCCCCCCCCCCCCCCC(=O)OCC(O)CO[C@@H]1O[C@H](CS(=O)(=O)[O-])[C@@H](O)[C@H](O)[C@H]1O.[Na+] (stereo partly shown) .
### Response 0.8562

### Prompt Given the molecule CCCCCCCCCCCCCCCCCC(=O)OCC(CO[C@H]1O[C@H](CS(=O)(=O)[O-])[C@@H](O)[C@H](O)[C@H]1O)OC(=O)CCCCCCCCCCCCCCCCC.[Na+] (stereo partly shown) , what is its reported SF (cell surviving fraction), administration alone?
### Response 0.9216
